target: OATP2B1 (Homo sapiens, UniProt O94956); construct: expressed in transfected cells; host or cells: A431; assay: OATP2B1 uptake assay (pyranine) in overexpressing A431 cells; type: cell-based; conditions: human, A431 cells overexpressing OATP2B1, pH 5.5, probe pyranine (20 μM); at 200 μM, pyranine; read-out: maximum inhibition of OATP2B1
Sequence (O94956 whole entry): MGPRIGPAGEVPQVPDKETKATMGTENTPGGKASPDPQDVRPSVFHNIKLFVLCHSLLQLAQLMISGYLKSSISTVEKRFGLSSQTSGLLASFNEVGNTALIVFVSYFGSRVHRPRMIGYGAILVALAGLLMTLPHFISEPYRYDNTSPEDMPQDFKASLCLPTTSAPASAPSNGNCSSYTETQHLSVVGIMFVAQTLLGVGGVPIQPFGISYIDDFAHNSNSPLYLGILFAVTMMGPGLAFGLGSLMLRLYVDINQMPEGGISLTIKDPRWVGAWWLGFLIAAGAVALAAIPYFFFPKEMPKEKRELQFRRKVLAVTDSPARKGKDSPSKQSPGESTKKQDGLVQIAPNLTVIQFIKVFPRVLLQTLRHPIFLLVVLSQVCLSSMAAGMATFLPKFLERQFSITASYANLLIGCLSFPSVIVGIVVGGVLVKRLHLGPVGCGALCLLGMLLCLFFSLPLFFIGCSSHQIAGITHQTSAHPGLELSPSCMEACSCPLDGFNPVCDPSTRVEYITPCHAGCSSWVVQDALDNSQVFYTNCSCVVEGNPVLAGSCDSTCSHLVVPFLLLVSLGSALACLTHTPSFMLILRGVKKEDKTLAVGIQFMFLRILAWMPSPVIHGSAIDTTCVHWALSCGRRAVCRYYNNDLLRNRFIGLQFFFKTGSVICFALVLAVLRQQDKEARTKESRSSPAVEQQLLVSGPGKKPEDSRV
parameter_measured: inhibition at 10 min, 200 µM

Fill in: inhibition at 10 min, 200 µM of "CC(C)C(=O)OC[C@H]1O[C@@H](n2ccc(NO)nc2=O)[C@H](O)[C@@H]1O" is ___
20 to 40%

---

Biological target: UniProt Q9Y6L6
Sequence (Q9Y6L6 1-691): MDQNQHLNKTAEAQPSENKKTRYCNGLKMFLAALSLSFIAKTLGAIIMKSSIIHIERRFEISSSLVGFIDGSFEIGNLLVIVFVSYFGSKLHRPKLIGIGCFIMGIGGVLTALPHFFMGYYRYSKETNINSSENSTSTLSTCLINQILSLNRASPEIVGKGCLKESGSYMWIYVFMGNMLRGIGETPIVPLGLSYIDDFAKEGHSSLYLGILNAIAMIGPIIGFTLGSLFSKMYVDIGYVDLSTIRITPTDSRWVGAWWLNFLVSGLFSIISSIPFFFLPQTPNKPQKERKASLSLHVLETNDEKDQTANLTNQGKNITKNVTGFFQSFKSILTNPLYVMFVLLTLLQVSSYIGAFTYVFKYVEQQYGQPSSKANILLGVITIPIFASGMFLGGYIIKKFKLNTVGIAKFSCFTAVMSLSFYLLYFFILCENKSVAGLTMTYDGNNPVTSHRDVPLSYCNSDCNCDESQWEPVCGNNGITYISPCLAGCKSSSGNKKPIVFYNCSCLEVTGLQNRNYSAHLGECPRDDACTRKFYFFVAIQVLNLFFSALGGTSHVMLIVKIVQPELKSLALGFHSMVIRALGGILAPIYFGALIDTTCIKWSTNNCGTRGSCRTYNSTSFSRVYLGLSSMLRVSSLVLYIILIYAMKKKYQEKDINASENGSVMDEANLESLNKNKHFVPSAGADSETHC
Assay: OATP1B1 uptake assay (pyranine) in overexpressing A431 cells
Conditions: human, A431 cells overexpressing OATP1B1, pH 7.4, probe pyranine (20 μM)
parameter_measured: inhibition at 10 min, 200 µM

What value of inhibition at 10 min, 200 µM has been reported for the following compound? "CC(C)C(=O)OC[C@H]1O[C@@H](n2ccc(NO)nc2=O)[C@H](O)[C@@H]1O"
20 to 40%
